- PROTOCOL TEXT: Solubility (PBS, FaSSIF, SGF)
- Type: physicochemical
- CONDITION LABEL: PBS buffer, pH 7.4, aqueous buffer; read-out: Solubility in PBS buffer, pH 7.4
TEST READOUT: solubility (µM)
A number alone suffices; assume µM.

What does the record list as solubility for C[C@@H]1COCCN1c1cc(N2CCCC[C@@H]2C(F)(F)F)[nH]c(=O)c1 ?
175

###

- PROTOCOL TEXT: In vivo mouse PK
- CONDITION LABEL: in vivo mouse PK
TEST READOUT: Vd (L/kg)
Kindly answer with a numeric value in L/kg, unit omitted.

What value of Vd has been recorded for this entry: C[C@@H]1COCCN1c1cc(N2CCCC[C@@H]2C(F)(F)F)[nH]c(=O)c1 [SB02024]
2.53
